- Test system: Wolbachia pipientis
- TEST: Anti-Wolbachia Cell-Based Screen
- Type: functional
- Design: scale not given: in the data most compounds retested in dose-response had high values
- ASSAY CONDITIONS: 5 µM
In all, about 48,000 compounds went through this assay and about 13,000 (27%) showed an effect of 50% or more. Some of the results follow.
ATTRIBUTE MEASURED: Percent Effect (%)

- COMPOUND: "COc1cccc(Cn2cc(C3=CCN(CC(=O)N(C)C)CC3)cn2)c1"
  ATTRIBUTE MEASURED: "Percent Effect"
  VALUE REPORTED: 105.2
- COMPOUND: "Cc1nc(N2C[C@H]3CNC[C@H]3C2)c2sccc2n1"
  ATTRIBUTE MEASURED: "Percent Effect"
  VALUE REPORTED: 3.045
- COMPOUND: "Cl.O=C(N[C@H]1CN[C@H]2CCCO[C@H]21)c1ccno1"
  ATTRIBUTE MEASURED: "Percent Effect"
  VALUE REPORTED: -7.03
- COMPOUND: "COc1cccc(Cn2cc(C3=CCN(CCO)CC3)cn2)c1"
  ATTRIBUTE MEASURED: "Percent Effect"
  VALUE REPORTED: 104.2
- COMPOUND: "Cc1nc(CN2CC[C@H]3[C@H]2CCN3c2ncccn2)cs1.O=C(O)C(F)(F)F.O=C(O)C(F)(F)F.O=C(O)C(F)(F)F"
  ATTRIBUTE MEASURED: "Percent Effect"
  VALUE REPORTED: -7.266
- COMPOUND: "Cc1nc(CN2CCO[C@H]3[C@@H](OCc4ccccn4)CC[C@@H]32)cs1.O=C(O)C(F)(F)F.O=C(O)C(F)(F)F"
  ATTRIBUTE MEASURED: "Percent Effect"
  VALUE REPORTED: 8
- COMPOUND: "CC(Cn1cncn1)NCc1csc2c1CCCC2 (centres undefined)"
  ATTRIBUTE MEASURED: "Percent Effect"
  VALUE REPORTED: -14.34
- COMPOUND: "CCn1cc(C2=CCN(CCCOc3ccccc3)CC2)cn1"
  ATTRIBUTE MEASURED: "Percent Effect"
  VALUE REPORTED: 20.1
- COMPOUND: "Cc1nn(C)c(C)c1C(C(=O)O)N1CC=C(c2ccccc2)CC1 (centres undefined)"
  ATTRIBUTE MEASURED: "Percent Effect"
  VALUE REPORTED: -20.97
- COMPOUND: "O=C(O)C(F)(F)F.O=C(O)C(F)(F)F.c1ccc(O[C@@H]2CC[C@H]3[C@H]2OCCN3CC2CCOCC2)nc1"
  ATTRIBUTE MEASURED: "Percent Effect"
  VALUE REPORTED: -13.85
- COMPOUND: "COc1cccc(C2=CCN(CCN3CCCC3=O)CC2)c1"
  ATTRIBUTE MEASURED: "Percent Effect"
  VALUE REPORTED: -10.09
- COMPOUND: "CN(C)CCNC(=O)[C@H]1C[C@H]2CN(c3ncccn3)C[C@H]2N1C.O=C(O)C(F)(F)F.O=C(O)C(F)(F)F.O=C(O)C(F)(F)F"
  ATTRIBUTE MEASURED: "Percent Effect"
  VALUE REPORTED: -2.268
- COMPOUND: "CC(Cc1ccccc1Br)NC(=O)CCS(C)(=O)=O (centres undefined)"
  ATTRIBUTE MEASURED: "Percent Effect"
  VALUE REPORTED: 11.71
- COMPOUND: "N#Cc1ccc(C(=O)NS(=O)(=O)c2ccc(C#N)c(Cl)c2)cc1"
  ATTRIBUTE MEASURED: "Percent Effect"
  VALUE REPORTED: -4.058
- COMPOUND: "Cc1cccc(-c2ncc(CNC(C)Cc3ccncc3)cn2)c1 (centres undefined)"
  ATTRIBUTE MEASURED: "Percent Effect"
  VALUE REPORTED: -2.738
- COMPOUND: "CN(C)C(=O)CN1CC=C(c2cnn(Cc3ccccc3)c2)CC1"
  ATTRIBUTE MEASURED: "Percent Effect"
  VALUE REPORTED: 99.64
- COMPOUND: "Fc1ccc(CN2CCO[C@H]3[C@H](Oc4ccccn4)CC[C@@H]32)cc1.O=C(O)C(F)(F)F.O=C(O)C(F)(F)F"
  ATTRIBUTE MEASURED: "Percent Effect"
  VALUE REPORTED: -5.975
- COMPOUND: "CC(C)NC(=O)[C@H]1C[C@@H]2[C@@H](C1)OCCN2Cc1ccccn1.O=C(O)C(F)(F)F.O=C(O)C(F)(F)F"
  ATTRIBUTE MEASURED: "Percent Effect"
  VALUE REPORTED: 2.364
- COMPOUND: "O=C(O)C(F)(F)F.O=C(O)C(F)(F)F.c1ccc(O[C@@H]2CO[C@@]3(CCCN(CC4CCOCC4)C3)C2)nc1"
  ATTRIBUTE MEASURED: "Percent Effect"
  VALUE REPORTED: -10.07

###

- Tested on: Wolbachia pipientis
- TEST: Anti-Wolbachia Cell-Based Screen
- Format: functional
- Design: scale not given: in the data most compounds retested in dose-response had high values
- ASSAY CONDITIONS: 5 µM
Screen size: about 48,000 compounds; about 13,000 (27%) showed an effect of 50% or more. Some of the results follow.

- COMPOUND: "Nc1ncccc1CN1C[C@H]2OC(=O)N(Cc3ccccn3)[C@H]2C1"
  TARGET OR TEST SYSTEM: "Wolbachia pipientis"
  Percent Effect / %: 0.5145
- COMPOUND: "c1cncc(C(Cn2cnnc2)N2CCOCC2)c1 (stereo not given)"
  TARGET OR TEST SYSTEM: "Wolbachia pipientis"
  Percent Effect / %: 3.663
- COMPOUND: "CNCc1cn(C[C@H]2C[C@@H]3CCN2C[C@@H]3C(=O)NC2CCCCC2)nn1"
  TARGET OR TEST SYSTEM: "Wolbachia pipientis"
  Percent Effect / %: -0.1027
- COMPOUND: "COc1ncccc1CN1CC[C@H]2O[C@@H](c3nnc(C)o3)CC[C@H]21"
  TARGET OR TEST SYSTEM: "Wolbachia pipientis"
  Percent Effect / %: -10.73
- COMPOUND: "Cc1noc(C)c1CNCc1ccccc1N(C)C1CCN(C)CC1"
  TARGET OR TEST SYSTEM: "Wolbachia pipientis"
  Percent Effect / %: 3.422

Source listed as ChEMBL document CHEMBL3988442.
